The reported measurements were obtained from the NIST ThermoML archive (doi:10.1016/j.jct.2005.03.013).

For each entry below, report its molar heat capacity at constant pressure value.
# assay comment: molar heat capacity at constant pressure
# details: 298 K; 101.33 kPa; Liquid; Large sample (1 g) DSC
The reply should contain only the number, in J/K/mol.

Report measured molar heat capacity at constant pressure; entry is CCCCn1cc[n+](C)c1.COCCOCCOS(=O)(=O)[O-] [1-butyl-3-methylimidazolium 2-(2-methoxyethoxy)ethyl sulfate] 643

Report measured molar heat capacity at constant pressure; entry is CCCCCCn1cc[n+](C)c1C.O=S(=O)([N-]S(=O)(=O)C(F)(F)F)C(F)(F)F 686

Report measured molar heat capacity at constant pressure; entry is CCCCCCCCn1cc[n+](C)c1.O=S(=O)([N-]S(=O)(=O)C(F)(F)F)C(F)(F)F 654

Report measured molar heat capacity at constant pressure; entry is CCCC[n+]1cccc(C)c1.F[B-](F)(F)F [1-butyl-3-methylpyridinium tetrafluoroborate] 405

---

# details: 283 K; 101.33 kPa; Liquid
measured metric: log10 of viscosity (log10 of the value in mPa·s)
Hello, just confirming the data are log10 of viscosity with units of mPa·s.

Report measured log10 of viscosity; entry is CCCC[n+]1cccc(C)c1.F[B-](F)(F)F [1-butyl-3-methylpyridinium tetrafluoroborate] 2.71

Report measured log10 of viscosity; entry is CCCCCCCCCCCCCC[N+](C)(CCOCCOCCOCCOCCOCCO)CCOCCOCCOCCOCCOCCO.COS(=O)(=O)[O-] 4.01

Report measured log10 of viscosity; entry is CCCCCC[n+]1ccn(C)c1.O=S(=O)([N-]S(=O)(=O)C(F)(F)F)C(F)(F)F 2.17

Report measured log10 of viscosity; entry is CCCCCC[n+]1ccccc1.O=S(=O)([N-]S(=O)(=O)C(F)(F)F)C(F)(F)F [1-hexylpyridinium bis(trifluromethylsulfonyl)imide] 2.28

Report measured log10 of viscosity; entry is CCOS(=O)(=O)[O-].CC[n+]1cccc(C)c1 [1-ethyl-3-methylpyridinium ethylsulfate] 2.62

Report measured log10 of viscosity; entry is CCCC[n+]1cccc(C)c1.O=S(=O)([N-]S(=O)(=O)C(F)(F)F)C(F)(F)F 2.14

Report measured log10 of viscosity; entry is CCCCn1cc[n+](C)c1.COCCOCCOS(=O)(=O)[O-] [1-butyl-3-methylimidazolium 2-(2-methoxyethoxy)ethyl sulfate] 3.61

Report measured log10 of viscosity; entry is CCn1cc[n+](C)c1.O=S(=O)([N-]S(=O)(=O)C(F)(F)F)C(F)(F)F 1.72

Report measured log10 of viscosity; entry is CC(=O)[O-].CCCCn1cc[n+](C)c1 [1-butyl-3-methylimidazolium acetate] 3.21

---

For each entry below, report its viscosity value.
# details: 298 K; 101.33 kPa; Liquid
The reply should contain only the number, in mPa·s.

Report measured viscosity; entry is CCCC[n+]1cccc(C)c1.O=S(=O)([N-]S(=O)(=O)C(F)(F)F)C(F)(F)F 63

Report measured viscosity; entry is CCCCCC[n+]1ccn(C)c1.O=S(=O)([N-]S(=O)(=O)C(F)(F)F)C(F)(F)F 68

Report measured viscosity; entry is CCOS(=O)(=O)[O-].CC[n+]1cccc(C)c1 [1-ethyl-3-methylpyridinium ethylsulfate] 150
